species on record: Rattus norvegicus; experiment: Open TG-GATES - Regimen: Daily Repeat; format: toxicity, organism-based, Sprague-Dawley; design: regimen Daily Repeat, gender Male, age 6 weeks; conditions: in vivo, po, 1000 mg/kg, 72 h, tissue Blood, route gavage, dose level High, time 3 day
MEASURE: Plat (x10_4/uL)
The figure you give is taken to be in x10_4/uL; do not add the unit.

For CNC(=C[N+](=O)[O-])NCCSCc1ccc(CN(C)C)o1 [RANITIDINE] , what is its reported Plat?
117.3

###

species on record: Rattus norvegicus; assay: Open TG-GATES - Regimen: Daily Repeat; format: toxicity, organism-based, Sprague-Dawley; parameters: regimen Daily Repeat, gender Male, age 6 weeks; details: in vivo, po, 300 mg/kg, […], tissue Plasma, route gavage, dose level Middle, time 28 day
MEASURE: TC
State the result as a value with its unit after it.

Give its TC value. Item: `COC(=O)C1=C(C)NC(C)=C(C(=O)OC)C1c1ccccc1[N+](=O)[O-]`
73 mg/dL

Query (molecule): `O=C(OC[C@H]1O[C@@H](OC(=O)c2cc(O)c(O)c(OC(=O)c3cc(O)c(O)c(O)c3)c2)[C@H](OC(=O)c2cc(O)c(O)c(OC(=O)c3cc(O)c(O)c(O)c3)c2)[C@@H](OC(=O)c2cc(O)c(O)c(OC(=O)c3cc(O)c(O)c(O)c3)c2)[C@@H]1OC(=O)c1cc(O)c(O)c(OC(=O)c2cc(O)c(O)c(O)c2)c1)c1cc(O)c(O)c(OC(=O)c2cc(O)c(O)c(O)c2)c1` ; field requested: TC
70.2 mg/dL

Fill in: TC of `CCOc1ccc(NC(C)=O)cc1` is ___
70.2 mg/dL

// lookup TC for `CN/C(=N/CCSCc1nc[nH]c1C)NC#N`
70.6 mg/dL

Look up TC: `Cc1nnc2n1-c1ccc(Cl)cc1C(c1ccccc1Cl)=NC2`
70.6 mg/dL

TC lookup needed for `CNC(=C[N+](=O)[O-])NCCSCc1ccc(CN(C)C)o1` , thanks.
64.6 mg/dL

###

Catalogue of KIDNEY_R readings, one per entry.
species: Rattus norvegicus; test: Open TG-GATES - Regimen: Daily Repeat; type: toxicity, organism-based, Sprague-Dawley; design: regimen Daily Repeat, gender Male, age 6 weeks; conditions: in vivo, po, 100 mg/kg, […], tissue Kidney, route gavage, dose level Low, time 14 day

Below: 5 compounds and their reported KIDNEY_R.
>  <CHEMICAL STRING>
O=C(OC[C@H]1O[C@@H](OC(=O)c2cc(O)c(O)c(OC(=O)c3cc(O)c(O)c(O)c3)c2)[C@H](OC(=O)c2cc(O)c(O)c(OC(=O)c3cc(O)c(O)c(O)c3)c2)[C@@H](OC(=O)c2cc(O)c(O)c(OC(=O)c3cc(O)c(O)c(O)c3)c2)[C@@H]1OC(=O)c1cc(O)c(O)c(OC(=O)c2cc(O)c(O)c(O)c2)c1)c1cc(O)c(O)c(OC(=O)c2cc(O)c(O)c(O)c2)c1

>  <KIDNEY_R>
1.2 g

$$$$
>  <CHEMICAL STRING>
CCOc1ccc(NC(C)=O)cc1

>  <KIDNEY_R>
1.2 g

$$$$
>  <CHEMICAL STRING>
Cc1nnc2n1-c1ccc(Cl)cc1C(c1ccccc1Cl)=NC2

>  <KIDNEY_R>
1.2 g

$$$$
>  <CHEMICAL STRING>
COC(=O)C1=C(C)NC(C)=C(C(=O)OC)C1c1ccccc1[N+](=O)[O-]

>  <KIDNEY_R>
1.2 g

$$$$
>  <CHEMICAL STRING>
CNC(=C[N+](=O)[O-])NCCSCc1ccc(CN(C)C)o1

>  <KIDNEY_R>
1.2 g

$$$$

Please turn your attention to the following entry.
Query (compound): `CN/C(=N/CCSCc1nc[nH]c1C)NC#N` ; field requested: KIDNEY_R
1.3 g

###

organism: Rattus norvegicus; assay: Open TG-GATES - Regimen: Daily Repeat; assay type: toxicity, organism-based, Sprague-Dawley; design: regimen Daily Repeat, gender Male, age 6 weeks; conditions: in vivo, po, 100 mg/kg, […], tissue Blood, route gavage, dose level Low, time 14 day
Values of Ret greater than or equal to 5% map to Y; values below map to N.

Check out these entries, answers already filled in.
>  <MOLECULE>
CCOc1ccc(NC(C)=O)cc1 [PHENACETIN]

>  <ASSIGNED LABEL>
N

$$$$
>  <MOLECULE>
Cc1nnc2n1-c1ccc(Cl)cc1C(c1ccccc1Cl)=NC2 [TRIAZOLAM]

>  <ASSIGNED LABEL>
N

$$$$
>  <MOLECULE>
CNC(=C[N+](=O)[O-])NCCSCc1ccc(CN(C)C)o1 [RANITIDINE]

>  <ASSIGNED LABEL>
N

$$$$
>  <MOLECULE>
CN/C(=N/CCSCc1nc[nH]c1C)NC#N [CIMETIDINE]

>  <ASSIGNED LABEL>
N

$$$$
>  <MOLECULE>
O=C(OC[C@H]1O[C@@H](OC(=O)c2cc(O)c(O)c(OC(=O)c3cc(O)c(O)c(O)c3)c2)[C@H](OC(=O)c2cc(O)c(O)c(OC(=O)c3cc(O)c(O)c(O)c3)c2)[C@@H](OC(=O)c2cc(O)c(O)c(OC(=O)c3cc(O)c(O)c(O)c3)c2)[C@@H]1OC(=O)c1cc(O)c(O)c(OC(=O)c2cc(O)c(O)c(O)c2)c1)c1cc(O)c(O)c(OC(=O)c2cc(O)c(O)c(O)c2)c1 [TANNIC ACID]

>  <ASSIGNED LABEL>
N

$$$$

Let us examine a further case.
Form field: Ret at least 5%? Entry: COC(=O)C1=C(C)NC(C)=C(C(=O)OC)C1c1ccccc1[N+](=O)[O-] [NIFEDIPINE]
Y

###

organism: Rattus norvegicus; experiment: Open TG-GATES - Regimen: Single; assay type: toxicity, organism-based, Sprague-Dawley; design: regimen Single, gender Male, age 6 weeks; conditions: in vivo, po, 0 mg/kg, 6 h, tissue Blood, route gavage, dose level Control
Quick reference: Fbg of the listed items.
Write the value in mg/dL as a bare number.

Please review the entries below; each comes with its answer.
>  <COMPOUND>
CNC(=C[N+](=O)[O-])NCCSCc1ccc(CN(C)C)o1 [RANITIDINE]

>  <MEASURE>
Fbg

>  <QUANTITATIVE READOUT>
238.2

$$$$
>  <COMPOUND>
Cc1nnc2n1-c1ccc(Cl)cc1C(c1ccccc1Cl)=NC2 [TRIAZOLAM]

>  <MEASURE>
Fbg

>  <QUANTITATIVE READOUT>
258.8

$$$$
>  <COMPOUND>
COC(=O)C1=C(C)NC(C)=C(C(=O)OC)C1c1ccccc1[N+](=O)[O-] [NIFEDIPINE]

>  <MEASURE>
Fbg

>  <QUANTITATIVE READOUT>
298

$$$$
>  <COMPOUND>
NC1=NC(=O)C(c2ccccc2)O1 (stereo not drawn) [PEMOLINE]

>  <MEASURE>
Fbg

>  <QUANTITATIVE READOUT>
286.2

$$$$
>  <COMPOUND>
CN/C(=N/CCSCc1nc[nH]c1C)NC#N [CIMETIDINE]

>  <MEASURE>
Fbg

>  <QUANTITATIVE READOUT>
219.2

$$$$
>  <COMPOUND>
Nc1c2c(nc3ccccc13)CCCC2 [TACRINE]

>  <MEASURE>
Fbg

>  <QUANTITATIVE READOUT>
310.4

$$$$

Recorded Fbg for CN(C)CCC(c1ccc(Cl)cc1)c1ccccn1 (stereo not drawn) [CHLORPHENIRAMINE] , please?
303.6

Form field: reported Fbg of CCOc1ccc(NC(C)=O)cc1 [PHENACETIN]
290.8

###

species: Rattus norvegicus; assay: Open TG-GATES - Regimen: Daily Repeat; format: toxicity, organism-based, Sprague-Dawley; set-up: regimen Daily Repeat, gender Male, age 6 weeks; settings: in vivo, po, 0 mg/kg, […], tissue Plasma, route gavage, dose level Control, time 28 day
Ca for assorted compounds
Please state the figure in mg/dL; there is no need to write the unit.

Here are 5 compounds together with their reported answers.
>  <COMPOUND>
Nc1c2c(nc3ccccc13)CCCC2

>  <QUANTITATIVE READOUT>
10.7

$$$$
>  <COMPOUND>
NC1=NC(=O)C(c2ccccc2)O1 (stereo unspecified)

>  <QUANTITATIVE READOUT>
11.4

$$$$
>  <COMPOUND>
Brc1ccccc1

>  <QUANTITATIVE READOUT>
10.7

$$$$
>  <COMPOUND>
CN/C(=N/CCSCc1nc[nH]c1C)NC#N

>  <QUANTITATIVE READOUT>
10.1

$$$$
>  <COMPOUND>
CN(C)CCC(c1ccc(Cl)cc1)c1ccccn1 (stereo unspecified)

>  <QUANTITATIVE READOUT>
10.6

$$$$

# evaluate next
# get_value(readout='Ca', item= CN1C(=O)CCS(=O)(=O)C1c1ccc(Cl)cc1 (stereo unspecified) )
10.8
